System: MOLT-4 leukemia
experiment description: NCI tumour cell line growth inhibition, 48 h
value type: TGI

Observe how each entry below is paired with its result.
| compound | target or system | TGI |
| --- | --- | --- |
| CN1c2ccccc2C(C)(C)C12C=Cc1cc(O)ccc1O2 (centres undefined) | MOLT-4 leukemia | > 100 µM |
| O=S(=O)(O)ON=C1c2ccccc2-c2ccccc21 | MOLT-4 leukemia | > 100 µM |
| CO/N=C(\C)COc1ccc2c(=O)c(-c3ccccc3)coc2c1 | MOLT-4 leukemia | > 100 µM |
| N#Cc1c(N)sc2c1-c1ccccc1OC2 | MOLT-4 leukemia | > 100 µM |
| O=[N+]([O-])c1cccc(C2ON2C2CCCCC2)c1 (centres undefined) | MOLT-4 leukemia | 64.7 µM |

Record for `COc1cc2c3c(n(CCCI)c(=O)c2cc1OC)-c1cc2c(cc1C3=O)OCO2` under target or system MOLT-4 leukemia: TGI reported as > 100 µM

Record for CCCCS(=O)(=O)CCC(N)C(=O)O (centres undefined) under target or system MOLT-4 leukemia: TGI reported as > 100 µM

Record for `O=C(NP(=O)(N1CC1)N1CC1)c1cc(I)ccc1I` under target or system MOLT-4 leukemia: TGI reported as > 100 µM

Record for `Cc1[nH]c(=O)nc(N(CCO)/N=C/c2ccccc2Cl)c1C(=O)Nc1cc(Cl)cc(Cl)c1` under target or system MOLT-4 leukemia: TGI reported as > 100 µM

Record for `CCn1cc(C(=O)O)c(=O)c2cc3c(cc21)S(=O)(=O)CC3` under target or system MOLT-4 leukemia: TGI reported as > 100 µM

---

System: LOX IMVI melanoma
experiment description: NCI tumour cell line growth inhibition, 48 h
Where a SMILES comes first, the peptide text is derived from it. The star is where a group is joined. Fmoc = O=C(OCC1c2ccccc2-c2ccccc21)*; Boc = CC(C)(C)OC(=O)*
value type: TGI (µM)
Report as a plain number; the unit µM is understood.

| compound | readout units | TGI |
| --- | --- | --- |
| CC1(C)[C@@H](O[C@@H]2OC[C@@H](O[C@@H]3O[C@H](CO)[C@@H](O)[C@H](O)[C@H]3O[C@@H]3OC[C@@H](O)[C@H](O)[C@H]3O)[C@H](O)[C@H]2O[C@@H]2O[C@H](CO)[C@@H](O)[C@H](O)[C@H]2O)CC[C@]2(C)[C@H]3CC[C@]45OC[C@@]6(CC[C@](C)(C=O)C[C@H]64)[C@H](O)C[C@@]5(C)[C@]3(C)CC[C@@H]12 | µM | 1.95 |
| CC(=C(C(N)=O)C(N)=O)C1C=C(c2cccs2)CC(c2ccc(Cl)cc2)=C1O (stereo unspecified) | µM | 40.4 |
| C#CC1(O)C(COP(=O)(O)OCC2OC(n3ccc(NCCCCCCCCCCCCCCCCCC)nc3=O)C(O)C2O)OC(n2ccc(N)nc2=O)C1O (stereo unspecified) | µM | 11.1 |
| CN1c2ccccc2C(C)(C)C12C=Cc1cc(O)ccc1O2 (stereo unspecified) | µM | 12.6 |
| COc1ccc(C(SCCO)(c2ccccc2)c2ccccc2)cc1 | µM | 39.7 |
| CC(C)(C)OC(=O)NCCCCC(NC(=O)OCC1c2ccccc2-c2ccccc21)C(=O)N1CCCC1C(=O)NCC(N)=O (stereo not drawn) (Fmoc-Lys(Boc)-Pro-Gly-NH2; configuration not given here) | µM | 40 |

Form field TGI, entry Clc1ccc(C2SCc3nc4ccccc4n32)cc1Cl (stereo unspecified) : 25.7

Form field TGI, entry CC(=O)O[C@@H]1C2=C(C)C=C(O2)[C@H]2O[C@]2(C)C[C@H]2C=C(C(=O)O2)[C@H](OC(C)=O)CC1[C@@]1(C)CO1 (stereo partly specified) : 37.6

Form field TGI, entry `CN(CC(=O)N(Cc1ccc(C2CCCCC2)cc1)c1ccc(C(=O)O)c(O)c1)S(=O)(=O)c1c(F)c(F)c(F)c(F)c1F` : 3.01

Form field TGI, entry `CCNC(=O)c1cc2c(-c3cc(C(C)(C)O)ccc3Oc3c(C)cc(F)cc3C)cn(C)c(=O)c2[nH]1` : 2.74

Form field TGI, entry COc1ccc(/C=c2\sc3n(c2=O)C(N)=C(C#N)C(c2ccc(OC)cc2)C=3c2nc3ccccc3[nH]2)cc1 (stereo unspecified) : 35.2
